Record: compiled Ki on UniProt:P28335 from multiple reports.
- system: UniProt:P28335
- Sequence (P28335 whole entry): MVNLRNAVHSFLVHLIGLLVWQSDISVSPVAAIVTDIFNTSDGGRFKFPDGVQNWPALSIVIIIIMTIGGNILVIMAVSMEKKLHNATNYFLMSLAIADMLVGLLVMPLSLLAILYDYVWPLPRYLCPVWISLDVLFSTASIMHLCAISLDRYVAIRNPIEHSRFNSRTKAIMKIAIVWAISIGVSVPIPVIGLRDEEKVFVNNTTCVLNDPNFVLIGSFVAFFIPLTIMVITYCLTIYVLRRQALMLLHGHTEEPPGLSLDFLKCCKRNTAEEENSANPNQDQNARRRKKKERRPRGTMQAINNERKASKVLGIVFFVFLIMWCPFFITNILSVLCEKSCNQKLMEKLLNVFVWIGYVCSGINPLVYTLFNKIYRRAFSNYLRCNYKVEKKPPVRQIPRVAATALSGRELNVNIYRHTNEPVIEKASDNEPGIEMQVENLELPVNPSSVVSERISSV

compound | system | Ki
C=Cc1ccc(N2CCN(Cc3c[nH]c4ncccc34)CC2)cc1 | UniProt:P28335 | > 10 µM
COC(=O)c1[nH]c2cc(F)ccc2c1[C@@H]1CNCC[C@H]1F | UniProt:P28335 | > 2 µM
COc1cc2c(cc1OC)C(=O)CC(CN1CCN(c3ccccc3OC)CC1)C2 (racemic) | UniProt:P28335 | > 10 µM
COc1ccc(NC(=O)N2CCN(c3ccc(F)cc3)CC2)cc1N1CCN(C)CC1 | UniProt:P28335 | > 10 µM
